Provide the reported IC50 of each item.

Which IC50 is reported with UniProt P42338 for this entry: NC(=O)[C@@H]1CCCN1C(=O)C1CN(c2cnc3ccc(-c4ccc5oc(N)nc5c4)cc3n2)C1 ?
> 10 µM

Query for UniProt P42338: what IC50 does the record show for Nc1nc2cc(-c3ccc4ncc(C(=O)N(CCO)CCO)n4c3)ccc2o1 ?
< 10 µM

API: value(readout= IC50, system= UniProt P42338, query= CS(=O)(=O)N1CCN(C2CN(c3cnc4ccc(-c5ccc6oc(N)nc6c5)cc4n3)C2)CC1 )
Sequence (P42338 whole entry): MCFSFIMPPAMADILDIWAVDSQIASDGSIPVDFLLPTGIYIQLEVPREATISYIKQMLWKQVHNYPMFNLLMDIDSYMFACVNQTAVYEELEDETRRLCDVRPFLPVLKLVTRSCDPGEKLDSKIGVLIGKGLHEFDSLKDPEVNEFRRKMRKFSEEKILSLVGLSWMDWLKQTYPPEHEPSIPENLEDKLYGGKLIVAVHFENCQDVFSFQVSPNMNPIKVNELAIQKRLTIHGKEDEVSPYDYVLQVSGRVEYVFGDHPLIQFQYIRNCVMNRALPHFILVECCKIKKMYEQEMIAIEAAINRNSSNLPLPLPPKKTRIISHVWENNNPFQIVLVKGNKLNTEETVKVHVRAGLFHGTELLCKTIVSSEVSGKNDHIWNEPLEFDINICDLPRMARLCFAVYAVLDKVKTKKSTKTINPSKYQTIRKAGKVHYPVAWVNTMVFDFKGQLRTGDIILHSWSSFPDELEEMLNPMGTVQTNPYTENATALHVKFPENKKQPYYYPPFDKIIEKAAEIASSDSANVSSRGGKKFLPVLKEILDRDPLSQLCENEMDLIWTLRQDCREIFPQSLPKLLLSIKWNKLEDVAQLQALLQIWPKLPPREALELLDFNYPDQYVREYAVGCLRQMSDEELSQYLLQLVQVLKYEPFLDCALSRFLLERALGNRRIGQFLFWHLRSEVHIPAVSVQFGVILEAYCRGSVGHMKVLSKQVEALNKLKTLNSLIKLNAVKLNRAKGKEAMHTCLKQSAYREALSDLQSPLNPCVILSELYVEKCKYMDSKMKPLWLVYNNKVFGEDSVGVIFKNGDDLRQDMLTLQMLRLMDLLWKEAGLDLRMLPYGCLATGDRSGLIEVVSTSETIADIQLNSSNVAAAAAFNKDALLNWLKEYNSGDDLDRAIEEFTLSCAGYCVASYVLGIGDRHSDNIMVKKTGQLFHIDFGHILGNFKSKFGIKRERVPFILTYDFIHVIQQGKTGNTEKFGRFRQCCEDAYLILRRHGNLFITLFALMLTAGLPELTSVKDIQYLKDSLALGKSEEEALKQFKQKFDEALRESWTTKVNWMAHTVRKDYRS
Sequence (P27986 whole entry partner): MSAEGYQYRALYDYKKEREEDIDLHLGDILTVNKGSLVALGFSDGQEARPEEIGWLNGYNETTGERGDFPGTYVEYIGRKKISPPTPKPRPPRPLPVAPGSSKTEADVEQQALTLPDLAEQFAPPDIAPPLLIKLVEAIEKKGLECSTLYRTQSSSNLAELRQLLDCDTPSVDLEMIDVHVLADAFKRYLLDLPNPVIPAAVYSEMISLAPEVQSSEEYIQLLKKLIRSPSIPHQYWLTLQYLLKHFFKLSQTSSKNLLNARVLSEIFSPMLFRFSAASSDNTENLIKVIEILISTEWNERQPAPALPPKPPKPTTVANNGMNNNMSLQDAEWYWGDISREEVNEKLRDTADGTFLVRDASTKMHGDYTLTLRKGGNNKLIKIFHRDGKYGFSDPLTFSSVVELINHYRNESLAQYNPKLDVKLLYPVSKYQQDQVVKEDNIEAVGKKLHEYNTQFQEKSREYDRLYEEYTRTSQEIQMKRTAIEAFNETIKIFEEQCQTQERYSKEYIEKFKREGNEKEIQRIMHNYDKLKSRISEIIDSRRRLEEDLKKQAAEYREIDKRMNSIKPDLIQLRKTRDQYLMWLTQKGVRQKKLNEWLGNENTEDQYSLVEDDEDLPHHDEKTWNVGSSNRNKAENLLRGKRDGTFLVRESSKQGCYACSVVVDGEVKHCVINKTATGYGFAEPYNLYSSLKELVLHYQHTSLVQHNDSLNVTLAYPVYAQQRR
< 10 µM

Query IC50 on UniProt P42338 for CNS(=O)(=O)c1cccc(-c2ccc3ncc(C(=O)N4CCOCC4)n3c2)c1
> 10 µM

For the record Nc1nc2cc(-c3ccc4ncc(C5=CCOCC5)nc4n3)ccc2o1 , what value of IC50 is listed for UniProt P42338?
< 10 µM

Form field - read-out: IC50; system: UniProt P42338; submitted item: Nc1nc2cc(-c3ccc4ncc(C(=O)N5CCOCC5)n4c3)c(F)cc2o1
< 10 µM

Param readout= IC50; system= UniProt P42338; entry= O=C(c1cnc2ccc(-c3cncc(NS(=O)(=O)c4ccccc4)c3)cn12)N1CCOCC1 ; returns value.
> 10 µM

Find the measured IC50: item CN1CCCN(c2cnc3ccc(-c4ccc5oc(N)nc5c4)cc3n2)CC1 , target or system UniProt P42338.
< 1 µM

Item CN1CCN(C(=O)c2cnc3ccc(-c4ccc5sc(N)nc5c4)cn23)CC1 with UniProt P42338 - IC50?
< 10 µM

Entry Nc1nc2cc(-c3ccc4ncc(N5CC[C@@H](N6CCOCC6)C5)nc4c3)ccc2o1 , system UniProt P42338: what IC50 was measured?
< 10 µM

* * *

system-under-test: PI3K γ (Homo sapiens (Human))
Sequence (P48736 whole entry): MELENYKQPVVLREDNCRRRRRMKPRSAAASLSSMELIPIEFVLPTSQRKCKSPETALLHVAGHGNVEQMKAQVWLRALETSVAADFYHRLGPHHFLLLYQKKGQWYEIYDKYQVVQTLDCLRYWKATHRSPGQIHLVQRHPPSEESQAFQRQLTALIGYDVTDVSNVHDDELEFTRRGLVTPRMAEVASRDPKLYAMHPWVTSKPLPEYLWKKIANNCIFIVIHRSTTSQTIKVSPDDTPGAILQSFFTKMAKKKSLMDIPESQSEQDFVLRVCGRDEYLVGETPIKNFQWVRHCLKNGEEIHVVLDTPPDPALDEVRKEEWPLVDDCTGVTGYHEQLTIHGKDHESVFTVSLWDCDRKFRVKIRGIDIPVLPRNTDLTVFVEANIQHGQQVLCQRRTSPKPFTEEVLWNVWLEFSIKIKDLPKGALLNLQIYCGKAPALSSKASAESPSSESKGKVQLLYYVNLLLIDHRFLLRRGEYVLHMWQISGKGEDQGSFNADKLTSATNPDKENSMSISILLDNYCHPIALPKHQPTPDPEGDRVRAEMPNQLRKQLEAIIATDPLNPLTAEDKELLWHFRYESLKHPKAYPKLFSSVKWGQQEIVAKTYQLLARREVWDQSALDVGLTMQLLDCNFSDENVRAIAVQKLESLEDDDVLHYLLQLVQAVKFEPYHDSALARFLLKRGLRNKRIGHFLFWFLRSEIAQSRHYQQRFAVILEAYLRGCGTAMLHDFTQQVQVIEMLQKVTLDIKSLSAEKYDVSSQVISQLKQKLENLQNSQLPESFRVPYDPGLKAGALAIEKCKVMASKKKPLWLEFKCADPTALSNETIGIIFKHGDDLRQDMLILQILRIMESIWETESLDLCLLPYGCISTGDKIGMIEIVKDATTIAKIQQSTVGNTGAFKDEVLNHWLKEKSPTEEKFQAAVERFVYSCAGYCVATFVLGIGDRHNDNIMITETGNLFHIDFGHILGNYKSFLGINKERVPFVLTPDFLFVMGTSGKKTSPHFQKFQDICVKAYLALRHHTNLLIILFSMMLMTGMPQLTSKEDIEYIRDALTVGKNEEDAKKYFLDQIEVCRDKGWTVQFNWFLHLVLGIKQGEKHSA
protocol-notes: PI 3-Kinase (human) HTRF assay, p110γ
Format: biochemical
condition-info: read-out: PI3K γ IC50
Answer each item with its documented IC50.

Need IC50 of Nc1nc2cc(-c3ccc4ncc(-c5cn[nH]c5)n4c3)ccc2o1 , thanks.
< 100 nM

Field request: IC50 | item: Nc1nc2cc(-c3ccc4ncc(-c5cnn(CCO)c5)nc4c3)ccc2o1
< 100 nM

Return reported IC50; argument: Nc1nsc2cc(-c3ccc4nccc(-c5ccncc5)c4c3)ccc12
< 1000 nM

Consider the compound shown here: C[C@@H]1CN(C2CN(c3cnc4ccc(-c5ccc6oc(N)nc6c5)nc4n3)C2)CCN1 What is its recorded IC50?
> 10000 nM

What does the record list as IC50 for Nc1nc2ccc(-c3ccc4ncc(N5CCOCC5)nc4c3)cc2o1 ?
< 1000 nM

Entry CC(=O)NC1CCN(C(=O)c2cnc3ccc(-c4ccc5oc(N)nc5c4)cn23)CC1 : reported IC50 = ?
< 10000 nM

IC50 for Nc1ncnc2ccc(-c3ccc4nccc(-c5ccncc5)c4c3)cc12 ?
< 1000 nM

# query: IC50 of entry C[C@H]1CN(c2cnc3ccc(-c4ccc5oc(N)nc5c4)cc3n2)CCN1
< 1000 nM

Which measured IC50 value corresponds to CC(C)N1CCC(Nc2ncnc3ccc(-c4ccc5oc(N)nc5c4)cc23)CC1 ?
< 10000 nM

Bench note: what IC50 did Nc1nc2cc(-c3ccc4ncc(N5CCNC(=O)C5)nc4n3)ccc2o1 show?
< 100 nM

I'd like to know its IC50. The compound in question is CNC(=O)CN1CCN(c2cnc3ccc(-c4ccc5oc(N)nc5c4)cc3n2)CC1
> 10000 nM

Please look up its IC50: CS(=O)(=O)N1CCN(C2CN(c3cnc4ccc(-c5ccc6oc(N)nc6c5)nc4n3)C2)CC1
< 1000 nM

Can you share its IC50? I mean this compound: Nc1nc2cc(-c3ccc4ncc(C(=O)NC5CCOCC5)n4c3)ccc2o1
< 100 nM

I have this compound here, Nc1nc2cc(-c3ccc4ncc(-c5cccnc5)n4n3)ccc2o1 , and I need its recorded IC50.
< 100 nM

Name the recorded IC50 for Nc1nc2cc(-c3ccc4ncc(C(=O)N5CCCC5)n4c3)ccc2o1 .
< 100 nM

Request the reported IC50 associated with CN1CCN(c2ccc3ncc(-c4ccc5oc(N)nc5c4)cc3n2)CC1
> 10000 nM

Form field: reported IC50 of Nc1nc2cc(-c3ccc4ncc(-c5cn[nH]c5)nc4c3)ccc2o1
< 100 nM

Dear colleague, I am looking for the recorded IC50 of the following compound: Nc1nc2cc(-c3ccc4ncc(C(=O)N5CCS(=O)(=O)CC5)n4c3)ccc2o1
< 10000 nM

Recorded IC50 of CN(CCN1CCOCC1)c1cnc2ccc(-c3ccc4oc(N)nc4c3)cc2n1 , please.
< 10000 nM

If you can, please state the reported IC50 value of Nc1nc2cc(-c3ccc4ncc(N5CCC(O)CC5)nc4n3)ccc2o1 .
< 100 nM

Entry Nc1nc2cc(-c3ccc4ncc(N5CCCC5)nc4c3)ccc2o1 : reported IC50 = ?
< 100 nM

Entry under review: C[C@@H]1CN(C(=O)c2cnc3ccc(-c4ccc5oc(N)nc5c4)cn23)C[C@H](C)O1 . Reported IC50?
< 10000 nM

I am curious: what IC50 value has been reported for Nc1nc2cc(-c3ccc4ncc(N5CCC(F)(F)CC5)nc4n3)ccc2o1 ?
< 100 nM

Fill blank: measured IC50 of the compound Nc1nc2cc(-c3c[nH]c4nccc(-c5ccncc5)c34)ccc2o1 is ____.
< 10000 nM

# lookup: IC50 of CC1CN(c2cnc3ccc(-c4ccc5oc(N)nc5c4)cc3n2)CCN1 (centres unmarked)
< 1000 nM

What value of measured IC50 is listed for CS(=O)(=O)N1CCN(C(=O)c2cnc3ccc(-c4ccc5oc(N)nc5c4)cn23)CC1 ?
< 1000 nM

Reported IC50, compound CS(=O)(=O)CCN1CCN(c2cnc3ccc(-c4ccc5oc(N)nc5c4)cc3n2)CC1 : ____
< 1000 nM

What value of IC50 has been recorded for this entry: N#Cc1cnc2ccc(-c3ccc4oc(N)nc4c3)cc2c1
< 1000 nM

Would you kindly share the measured IC50 for Nc1nc2ccc(-c3ccc4ncn(C5CCOCC5)c(=O)c4c3)cc2o1 ?
> 10000 nM

I'd like to know its IC50. The compound in question is Nc1nc2cccc(-c3ccc4nccc(-c5ccncc5)c4c3)c2s1
< 100 nM

Item under review: CN1CCN(c2cnc3ccc(-c4ccc5oc(N)nc5c4)nc3n2)CC1 . Reported IC50?
< 10000 nM

Requested field: IC50. Item: Nc1nc2cc(-c3ccc4ncc(-c5ccccc5)nc4c3)ccc2o1
> 10000 nM

I'd like to know its IC50. The compound in question is CC(=O)N1CCC(n2cnc3ccc(-c4ccc5oc(N)nc5c4)cc3c2=O)CC1
> 10000 nM

Please look up its IC50: Nc1nc2cc(-c3ccc4ncc(-c5ccccn5)nc4c3)ccc2o1
< 100 nM

Using the record for CC(C)(C#N)c1ccc(Nc2ncnc3ccc(-c4ccc5oc(N)nc5c4)cc23)cc1 , report its IC50.
< 100 nM

Using the record for Nc1nc2cc(-c3ccc4ncc(N5CCNCC5)nc4c3)ccc2o1 , report its IC50.
< 1000 nM

Could you tell me which IC50 is on file for CN1CCN(C2CN(c3cnc4ccc(-c5ccc6oc(N)nc6c5)nc4c3)C2)CC1=O ?
< 100 nM

Value lookup for IC50; key = Nc1nc2cc(-c3ccc4ncc(C(=O)N5CCN(CC6CC6)CC5)n4c3)ccc2o1
< 10000 nM

Can you look up the measured IC50 of CC(C)(C)N1CCN(c2cnc3ccc(-c4ccc5oc(N)nc5c4)cc3n2)CC1 for me?
< 1000 nM

Given the compound CN1CC(C(=O)N2CCN(c3cnc4ccc(-c5ccc6oc(N)nc6c5)cc4n3)CC2)C1 , what is its reported IC50?
< 1000 nM

I have this compound here, CC(C)N1CCN(C(=O)c2cnc3ccc(-c4ccc5oc(N)nc5c4)cn23)CC1 , and I need its recorded IC50.
> 10000 nM

FYI, the data here is from patent US9682141B2.
